# System: MSTO-211H (Mesothelioma);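 note: after 72 h of two-drug dosing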
# Procedure Details: Bliss excess, mean over the matrix (fraction); higher = more synergy
Collected Bliss excess values appear next to each entry.
Measurement Name: Bliss excess

>>> endpoint_value("Cc1cc2ncnn2cc1Nc1ncc2c(n1)n(C1CCOCC1)c(=O)n2C [AZD7648] + C[C@@H]1COCCN1C2=NC(=NC(=C2)C3(CC3)[S@](=N)(=O)C)C4=C5C=CNC5=NC=C4 [AZD6738] (first compound max 10 µM, 7x7, partner max 10 µM)")
0.0403
>>> endpoint_value("CC1(C)CCC(CN2CCN(c3ccc(C(=O)NS(=O)(=O)c4ccc(NCC5CCOCC5)c([N+](=O)[O-])c4)c(Oc4cnc5[nH]ccc5c4)c3)CC2)=C(c2ccc(Cl)cc2)C1 [Venetoclax] + C[C@@H]1COCCN1C2=NC(=NC(=C2)C3(CC3)[S@](=N)(=O)C)C4=C5C=CNC5=NC=C4 [AZD6738] (first compound max 1 µM, 7x7, partner max 10 µM)")
-0.0344
>>> endpoint_value("CC1(C)CCC(CN2CCN(c3ccc(C(=O)NS(=O)(=O)c4ccc(NCC5CCOCC5)c([N+](=O)[O-])c4)c(Oc4cnc5[nH]ccc5c4)c3)CC2)=C(c2ccc(Cl)cc2)C1 [Venetoclax] + C1CN(CCC1(C(=O)N[C@@H](CCO)C2=CC=C(C=C2)Cl)N)C3=NC=NC4=C3C=CN4 [Capivasertib] (first compound max 1 µM, 7x7, partner max 3 µM)")
-0.0496

###

Collected combination Emax values appear next to each entry.
# Test system: RCC10RGB (Kidney Carcinoma)
# Procedure Details: combination Emax (second highest fraction inhibited in the dose matrix, 72 h); higher = more inhibition; extreme values may be limits of the assay
Measurement Name: combination Emax

>>> endpoint_value("Cc1nc(Nc2ncc(C(=O)Nc3c(C)cccc3Cl)s2)cc(N2CCN(CCO)CC2)n1 [Dasatinib] + CC(=O)Nc1cccc(-n2c(=O)n(C3CC3)c(=O)c3c(Nc4ccc(I)cc4F)n(C)c(=O)c(C)c32)c1 [Trametinib] (first compound max 2 µM, 7x7, partner max 1 µM)")
0.667
>>> endpoint_value("COc1nnc2ccc(N3CCC(c4ccc(OCCN5CCN(C)C(=O)[C@H]5C)cc4)CC3)nn12 [AZD5153] + C[C@@H]1COCCN1C2=NC(=NC(=C2)C3(CC3)[S@](=N)(=O)C)C4=C5C=CNC5=NC=C4 [AZD6738] (first compound max 1 µM, 7x7, partner max 10 µM)")
0.572
>>> endpoint_value("CC(=O)c1c(C)c2cnc(Nc3ccc(N4CCNCC4)cn3)nc2n(C2CCCC2)c1=O [Palbociclib] + Cc1c2c(nn1C)CSCc1cc(n(C)n1)CSc1cc(c3ccccc3c1)OCCCc1c(C(=O)O)n(C)c3c-2c(Cl)ccc13 [AZD5991] (first compound max 10 µM, 7x7, partner max 1 µM)")
0.419
>>> endpoint_value("CC1(C)CCC(CN2CCN(c3ccc(C(=O)NS(=O)(=O)c4ccc(NCC5CCOCC5)c([N+](=O)[O-])c4)c(Oc4cnc5[nH]ccc5c4)c3)CC2)=C(c2ccc(Cl)cc2)C1 [Venetoclax] + C[C@@H]1COCCN1C2=NC(=NC(=C2)C3(CC3)[S@](=N)(=O)C)C4=C5C=CNC5=NC=C4 [AZD6738] (first compound max 1 µM, 7x7, partner max 10 µM)")
0.5
>>> endpoint_value("Cc1c2c(nn1C)CSCc1cc(n(C)n1)CSc1cc(c3ccccc3c1)OCCCc1c(C(=O)O)n(C)c3c-2c(Cl)ccc13 [AZD5991] + CC1(C)CCC(CN2CCN(c3ccc(C(=O)NS(=O)(=O)c4ccc(NCC5CCOCC5)c([N+](=O)[O-])c4)c(Oc4cnc5[nH]ccc5c4)c3)CC2)=C(c2ccc(Cl)cc2)C1 [Venetoclax] (first compound max 1 µM, 7x7, partner max 1 µM)")
0.221
>>> endpoint_value("C=CCn1c(=O)c2cnc(Nc3ccc(N4CCN(C)CC4)cc3)nc2n1-c1cccc(C(C)(C)O)n1 [AZD1775] + C[C@@H]1COCCN1C2=NC(=NC(=C2)C3(CC3)[S@](=N)(=O)C)C4=C5C=CNC5=NC=C4 [AZD6738] (first compound max 1 µM, partner max 10 µM)")
0.538
